Entries annotated with measured activity, negative = inhibition
Biological target: Cytochrome P450 1A2 (Homo sapiens) (UniProt P05177)
Sequence (P05177 whole entry, looked up): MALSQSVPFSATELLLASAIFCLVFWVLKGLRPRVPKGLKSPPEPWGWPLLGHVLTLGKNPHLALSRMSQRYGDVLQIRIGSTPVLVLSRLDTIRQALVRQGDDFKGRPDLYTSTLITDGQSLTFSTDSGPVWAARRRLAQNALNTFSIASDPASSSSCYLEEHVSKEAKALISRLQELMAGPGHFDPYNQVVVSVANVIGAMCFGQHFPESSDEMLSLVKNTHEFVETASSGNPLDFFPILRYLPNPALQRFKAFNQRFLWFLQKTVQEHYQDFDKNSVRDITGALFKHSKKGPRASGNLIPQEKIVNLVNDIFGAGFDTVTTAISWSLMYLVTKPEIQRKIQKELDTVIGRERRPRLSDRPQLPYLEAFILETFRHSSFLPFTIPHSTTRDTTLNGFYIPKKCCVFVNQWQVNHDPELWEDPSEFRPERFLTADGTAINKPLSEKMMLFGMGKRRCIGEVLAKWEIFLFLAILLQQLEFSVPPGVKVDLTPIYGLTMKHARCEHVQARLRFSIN
Assay: Cytochrome panel assay with activity outcomes; further: on the % scale 0 is the no-effect control and ±100 the full control effect
Settings: recombinant CYP, pro-luciferin dealkylation, luminescence, p450-cyp1a2; series mostly up to 57.1 µM
In all, about 16,000 compounds went through this assay and about 5,700 (36%) were called active. Inconclusive results (about 24%) are left out. The list shows a part of the results. Square brackets hold non-standard residues; d marks the D form. Peptide text beside a SMILES is read from it.

molecule	activity, negative = inhibition
Nc1ccc(S(=O)(=O)NCc2nccs2)cc1	-10.5% [at 2.29 µM] (inactive)
CCCNC(=O)OC[C@@H]1O[C@H](CCO/N=C2\c3cc(OC)ccc3O[C@H](c3cccc(OC)c3)[C@H]2O)C=C[C@@H]1Oc1ccc(OC)cc1	-14.6% [at 11.4 µM] (inactive)
CC(=O)OC[C@@H]1O[C@@H](O/N=C2/C[C@@H](O)[C@@H](O)[C@@H]3[C@@H]4C(=O)N([C@@H](C)c5ccccc5)C(=O)[C@H]4CC[C@H]23)[C@H](OC(C)=O)[C@H](OC(C)=O)[C@@H]1OC(C)=O	3.02% [at 11.4 µM] (inactive)
CC(=O)OC[C@@H]1O[C@@H](O/N=C2/C[C@@H](O)[C@@H](O)[C@@H]3[C@H]4C(=O)N(c5ccc(F)cc5F)C(=O)[C@@H]4CC[C@@H]23)[C@H](OC(C)=O)[C@H](OC(C)=O)[C@@H]1OC(C)=O	2.88% [at 11.4 µM] (inactive)
CCc1cc2c(nc1CC)CCN(CC/C(C)=N/OCC[C@@H]1C=C[C@H](OC(C)=O)[C@H](COC(C)=O)O1)C2	-15.5% [at 11.4 µM] (inactive)
N[C@H](CO)C(=O)NCC(=O)O (H-[dS]-Gly-OH)	3.56% [at 2.29 µM] (inactive)

[ask] Please indicate recorded activity, negative = inhibition of CC(C)=CCC/C(C)=C/CO/N=C1/C[C@@H](O)[C@@H](O)[C@@H]2[C@@H]3C(=O)N(C4CCCCC4)C(=O)[C@H]3CC[C@@H]12 measured with Cytochrome P450 1A2 (Homo sapiens) (UniProt P05177).
[reply] -3% [at 11.4 µM] (inactive)

[ask] Please indicate recorded activity, negative = inhibition of CN1CCN(CCCN)CC1 measured with Cytochrome P450 1A2 (Homo sapiens) (UniProt P05177).
[reply] -19.9% [at 11.4 µM] (inactive)

---

Entries annotated with measured activity, negative = inhibition
Molecular target: Cytochrome P450 1A2 (Homo sapiens) (UniProt P05177)
Experiment: Cytochrome panel assay with activity outcomes; further: on the % scale 0 is the no-effect control and ±100 the full control effect
Details: recombinant CYP, pro-luciferin dealkylation, luminescence, p450-cyp1a2; series mostly up to 57.1 µM
The campaign covered roughly 16,000 compounds. About 5,700 (36%) were called active. Another 24% or so got no clear call; they are omitted. The list shows a part of the results.

As a guide, the following entries are already answered.
> print(dat)
                    compoundstructurestring                                  testedon                  observationtype                           result
1  Nc1nc2c(c(=O)[nH]1)N[C@H](CCNc1ccc(C(=O)O)cc1)CN2  Cytochrome P450 1A2 (Homo sapiens) (UniProt P05177)  activity, negative = inhibition   -4.28% [at 11.4 µM] (inactive)
2  COC(=O)C/C=C\[C@@H](C)[C@@H](/C=N\OC[C@@H](C)[C@H](OCc1ccccc1)C(C)C)OC  Cytochrome P450 1A2 (Homo sapiens) (UniProt P05177)  activity, negative = inhibition  -0.613% [at 11.4 µM] (inactive)
3           N#C/C(=C\Nc1ccccn1)C(=O)c1ccco1  Cytochrome P450 1A2 (Homo sapiens) (UniProt P05177)  activity, negative = inhibition   -22.9% [at 11.4 µM] (inactive)

[ask] Answer with reported activity, negative = inhibition of CS(=O)(=O)N(CC(=O)O)Cc1ccccc1
[reply] 4.38% [at 11.4 µM] (inactive)

[ask] Answer with reported activity, negative = inhibition of COC(=O)[C@@H]1CC[C@H](C)[C@@H](c2ccc(C)cc2)N1C(=O)c1ccc(/C=N\OC[C@@H](O)[C@H]2O[C@H]3OC(C)(C)O[C@H]3[C@@H]2O)cc1
[reply] -5.97% [at 11.4 µM] (inactive)
